- Measurement target: 5-hydroxytryptamine receptor 1A (Rattus norvegicus)
- Sequence (P19327 whole entry): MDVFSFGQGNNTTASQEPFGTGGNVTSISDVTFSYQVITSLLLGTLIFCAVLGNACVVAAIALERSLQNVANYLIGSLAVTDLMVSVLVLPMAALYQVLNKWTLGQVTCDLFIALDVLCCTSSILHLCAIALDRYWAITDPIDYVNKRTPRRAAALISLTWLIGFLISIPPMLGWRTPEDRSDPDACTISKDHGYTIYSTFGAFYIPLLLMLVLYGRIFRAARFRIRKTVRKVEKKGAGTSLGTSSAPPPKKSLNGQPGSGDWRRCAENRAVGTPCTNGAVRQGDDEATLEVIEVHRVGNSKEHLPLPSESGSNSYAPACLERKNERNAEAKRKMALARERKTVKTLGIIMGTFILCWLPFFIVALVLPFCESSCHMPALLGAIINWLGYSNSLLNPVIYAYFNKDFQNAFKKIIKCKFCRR
A compilation of Ki values for 5-hydroxytryptamine receptor 1A (Rattus norvegicus) from the published literature.
Test readout: Ki (nM)

// below: answered molecules
* COc1ccc2[nH]cc(C3CCN(CCCCn4c(=O)c(-c5ccccc5F)c5n(c4=O)CCCC5)CC3)c2c1 | 45.6
* O=C1CC(=C2c3ccccc3-c3ccccc32)C(=O)N1CN1CCN(c2cccc(Cl)c2)CC1 | 42
* N#Cc1ccccc1N1CCN(CCNC(=O)c2ccccn2)CC1 | 74.8
* O=C(c1ccc(Cl)c(Cl)c1)N1CCC(CNCc2cccc(-c3cc[nH]n3)n2)CC1 | 0.537

[P] O=c1n(CCN2CCN(c3ccccc3)CC2)c2ccccc2n1-c1ccccc1
[Q] Cc1ccc(-c2c(=O)n(CCCCN3CC=C(c4c[nH]c5ccc(F)cc45)CC3)c(=O)n3ccccc23)cc1
[R] O=c1ccc(-n2ccnc2)nn1CCCCCN1CCN(c2ccccc2Cl)CC1
[S] COc1ccc(-c2c(=O)n(CCCCN3CCC(c4c[nH]c5ccc(OC)cc45)CC3)c(=O)n3ccccc23)cc1
Falling order of Ki, please. Please reply with the labels ordered as requested. Many thanks. P, R, Q, S

---

The entries below pair molecules with Ki values for 5-hydroxytryptamine receptor 1A (Rattus norvegicus), as found in several publications.
- Measurement target: 5-hydroxytryptamine receptor 1A (Rattus norvegicus)
- Sequence (P19327 whole entry): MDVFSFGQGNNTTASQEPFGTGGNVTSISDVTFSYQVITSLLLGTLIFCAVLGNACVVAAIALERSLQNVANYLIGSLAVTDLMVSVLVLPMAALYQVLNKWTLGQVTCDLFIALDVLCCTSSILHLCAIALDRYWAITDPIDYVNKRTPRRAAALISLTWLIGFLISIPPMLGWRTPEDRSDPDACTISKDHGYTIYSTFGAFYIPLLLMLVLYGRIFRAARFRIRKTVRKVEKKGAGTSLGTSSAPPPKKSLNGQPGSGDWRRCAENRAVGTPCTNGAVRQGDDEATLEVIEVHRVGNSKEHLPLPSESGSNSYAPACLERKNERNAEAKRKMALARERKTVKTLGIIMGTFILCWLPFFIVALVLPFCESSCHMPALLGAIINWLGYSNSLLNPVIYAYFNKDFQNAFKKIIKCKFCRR
Test readout: Ki (nM)

- Cl.O=C1C2C3CCCC(CC3)C2C(=O)N1CCCCN1CCN(c2cccc(C(F)(F)F)c2)CC1 (centres undefined): 17

[I] Cc1cc(=O)oc2cc(OCCCCN3CCC(c4noc5cc(F)ccc45)CC3)c(Cl)cc12
[II] Cn1c(=O)c2c(ncn2CCCCCN2CCc3ccccc3C2)n(C)c1=O
[III] O=C1c2ccccc2S(=O)(=O)N1CCCCN1CCC(c2ccc(F)cc2)C1 (centres undefined)
Arrange the 3 molecules by rising Ki, starting with the smallest. Hello, could you send the labels back in the order asked? Thank you. III, I, II
(III: 4.2 nM, I: 17.2 nM, II: 171 nM)

[1] COc1cccc(N2CCN(CCCCOc3ccc4c5c(c(=O)oc4c3)CCC5)CC2)c1
[2] O=C1CC(C2CCCCC2)C(=O)N1CCN1CCN(c2cccc(Cl)c2)CC1 (centres undefined)
Could you point out whether the larger Ki belongs to 1 or to 2 ? Identify your pick by its label. 2
(2: 227 nM, 1: 22.4 nM)
